pEC50 by entry:
TEST SYSTEM: human mGluR4 (hmGluR4) (Homo sapiens)
MEASUREMENT DESCRIPTION: Calcium assay EC50 determination, positive allosteric modulator activity on hmGluR4 transiently over-expressed in HEK-293 cells
PARTICULARS: PAM mode with EC20 glutamate; hmGluR4 in HEK-293 cells; intracellular calcium (Fluo4AM); read-out: mGluR4 positive allosteric modulator activity, half maximal effective concentration (EC50)
pEC50: −log10 of the molar value. Where a name gives a salt, the structure may show the parent alone.
QUANTITY: pEC50

INSERT INTO results (compound, quantity, endpoint_value) VALUES
  ('CCc1cc(OCCCc2ccncc2)cc2c(=O)[nH]c(-c3cc4ccsc4cn3)nc12 [Compound 74, hydrochloride]', 'pEC50', '6.00 to 7.00'),
  ('CCC(=O)N1CCC(COc2cc(C)c3nc(-c4cc5ccsc5cn4)[nH]c(=O)c3c2)CC1 [Compound 87]', 'pEC50', '6.00 to 7.00'),
  ('Cl.O=c1[nH]c(-c2cc3sccc3cn2)nc2ccc(OCCN3CCOCC3)cc12 [Compound 35, hydrochloride]', 'pEC50', '5.00 to 6.00'),
  ('Cc1cc(N2CCC3(CCOCC3)CC2)cc2c(=O)[nH]c(-c3cc(C(F)(F)F)ccn3)nc12 [Compound 105]', 'pEC50', '≥ 7.00');

====

EC50 by entry:
TEST SYSTEM: human mGluR4 (hmGluR4) (Homo sapiens)
MEASUREMENT DESCRIPTION: Calcium assay EC50 determination, positive allosteric modulator activity on hmGluR4 transiently over-expressed in HEK-293 cells
PARTICULARS: PAM mode with EC20 glutamate; hmGluR4 in HEK-293 cells; intracellular calcium (Fluo4AM); read-out: mGluR4 positive allosteric modulator activity, half maximal effective concentration (EC50)
Counter-ions that a name gives are not always drawn.
QUANTITY: EC50

INSERT INTO measurements (molecule, quantity, endpoint_value) VALUES
  ('Cc1cc(OCC2(F)CCOC2)cc2c(=O)[nH]c(-c3cc(C(F)(F)F)ccn3)nc12 (stereo not shown)', 'EC50', '≤ 100 nM'),
  ('Cc1cc(CCN2CCOC(C)(C)C2)cc2c(=O)[nH]c(-c3cc(C(F)(F)F)ccn3)nc12.Cl [Compound 160, hydrochloride]', 'EC50', '≤ 100 nM'),
  ('Cc1cc(OC2CCC(=O)N(C)C2)cc2c(=O)[nH]c(-c3cc4ccsc4cn3)nc12 (stereo not shown) [Compound 81]', 'EC50', '≤ 100 nM'),
  ('Cc1cc(O[C@H]2CC(=O)N(C)C2)cc2c(=O)[nH]c(-c3cc4sccc4cn3)nc12', 'EC50', '≤ 100 nM'),
  ('COCCN(C)CCc1cc(C)c2nc(-c3cc4sccc4cn3)[nH]c(=O)c2c1.Cl [Compound 148, hydrochloride]', 'EC50', '1000 to 10000 nM'),
  ('Cc1cc(N2CCC3(CCCOC3)C2)cc2c(=O)[nH]c(-c3cc4ccsc4cn3)nc12 (stereo not shown)', 'EC50', '≤ 100 nM'),
  ('O=c1[nH]c(-c2cc(C(F)(F)F)ccn2)nc2c(Cl)cc(CCN3CCOCC3)cc12 [Compound 154, hydrochloride]', 'EC50', '100 to 1000 nM');

====

Structures can show the parent of a compound that is named as a salt.
melting point by entry:
QUANTITY: melting point

INSERT INTO measurements (molecule, endpoint_value) VALUES
  ('COCCN(C)CCc1cc(C)c2nc(-c3cc4sccc4cn3)[nH]c(=O)c2c1.Cl', '149 to 162 °C'),
  ('Cc1cc(CN2CCN(C)C(=O)C2)cc2c(=O)[nH]c(-c3cc(C(F)(F)F)ccn3)nc12.Cl', '> 250 °C'),
  ('Cc1cc(O[C@@H](C)C2CCOCC2)cc2c(=O)[nH]c(-c3cc4ccsc4cn3)nc12', '150 to 180 °C'),
  ('Cc1cc(CN2CCC(C(=O)N(C)C)CC2)cc2c(=O)[nH]c(-c3cc4sccc4cn3)nc12 (as salt: hydrochloride)', '215 to 230 °C'),
  ('Cc1cc(CN2CCOC(C)(C)C2)cc2c(=O)[nH]c(-c3cc4sccc4cn3)nc12 (as salt: hydrochloride)', '220 to 240 °C'),
  ('Cl.O=c1[nH]c(-c2cc3sccc3cn2)nc2ccc(OCCCc3cccnc3)cc12', '149 to 154 °C'),
  ('Cl.O=c1[nH]c(-c2cc(C(F)(F)F)ccn2)nc2ccc(OCCCc3ccncc3)nc12', '> 250 °C');

====

TEST SYSTEM: human mGluR4 (hmGluR4) (Homo sapiens, UniProt Q14833)
Sequence (Q14833 33-912): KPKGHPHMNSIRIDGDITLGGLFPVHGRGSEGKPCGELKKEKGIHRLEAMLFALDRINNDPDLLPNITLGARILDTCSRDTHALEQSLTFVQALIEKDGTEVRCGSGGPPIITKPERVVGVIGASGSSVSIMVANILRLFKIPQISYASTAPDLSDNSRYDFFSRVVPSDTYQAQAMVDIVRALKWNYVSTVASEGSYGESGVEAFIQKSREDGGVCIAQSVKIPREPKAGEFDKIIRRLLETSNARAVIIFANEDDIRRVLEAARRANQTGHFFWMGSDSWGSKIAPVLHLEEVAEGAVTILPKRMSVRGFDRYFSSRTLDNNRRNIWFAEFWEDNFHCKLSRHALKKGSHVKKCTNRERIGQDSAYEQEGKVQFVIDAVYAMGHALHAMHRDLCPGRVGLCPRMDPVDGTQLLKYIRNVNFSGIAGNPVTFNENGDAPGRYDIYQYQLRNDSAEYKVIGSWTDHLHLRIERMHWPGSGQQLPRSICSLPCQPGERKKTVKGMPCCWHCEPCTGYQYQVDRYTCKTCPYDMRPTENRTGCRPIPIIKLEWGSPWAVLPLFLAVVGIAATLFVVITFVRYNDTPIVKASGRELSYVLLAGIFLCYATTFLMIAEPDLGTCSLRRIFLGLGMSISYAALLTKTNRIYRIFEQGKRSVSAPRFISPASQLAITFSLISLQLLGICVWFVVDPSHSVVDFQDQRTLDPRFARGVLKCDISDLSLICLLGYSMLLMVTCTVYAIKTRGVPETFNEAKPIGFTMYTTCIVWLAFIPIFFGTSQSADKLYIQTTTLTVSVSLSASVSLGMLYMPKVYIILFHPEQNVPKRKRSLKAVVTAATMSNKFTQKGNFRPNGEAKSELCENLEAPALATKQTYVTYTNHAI
MEASUREMENT DESCRIPTION: Calcium assay EC50 determination, positive allosteric modulator activity on hmGluR4 transiently over-expressed in HEK-293 cells
PARTICULARS: PAM mode with EC20 glutamate; hmGluR4 in HEK-293 cells; intracellular calcium (Fluo4AM); read-out: mGluR4 positive allosteric modulator activity, half maximal effective concentration (EC50)
Where a name gives a salt, the structure may show the parent alone.
EC50 by entry:
QUANTITY: EC50

INSERT INTO results (compound, quantity, endpoint_value) VALUES
  ('Cc1cc(CN2CCN(C)C(=O)C2)cc2c(=O)[nH]c(-c3cc(C(F)(F)F)ccn3)nc12.Cl [Compound 161, hydrochloride]', 'EC50', '100 to 1000 nM'),
  ('Cc1cc(CC(=O)N2CCOCC2)cc2c(=O)[nH]c(-c3cc4sccc4cn3)nc12', 'EC50', '≤ 100 nM'),
  ('O=c1[nH]c(-c2cc(C(F)(F)F)c(Cl)cn2)nc2ccc(OCCCc3ccncc3)cc12 [Compound 14, hydrochloride]', 'EC50', '1000 to 10000 nM'),
  ('O=c1[nH]c(-c2cc3ccsc3cn2)nc2c(F)cc(OCCCc3ccncc3)cc12', 'EC50', '100 to 1000 nM'),
  ('CC(=O)N1CCC(c2ccc3nc(-c4cc5ccsc5cn4)[nH]c(=O)c3c2)CC1', 'EC50', '100 to 1000 nM'),
  ('CCC(=O)N1CC[C@H](Oc2cc(C)c3nc(-c4cc5ccsc5cn4)[nH]c(=O)c3c2)C1 [Compound 82-S]', 'EC50', '≤ 100 nM'),
  ('Cc1cc(O[C@@H]2CC(=O)N(C)C2)cc2c(=O)[nH]c(-c3cc4sccc4cn3)nc12', 'EC50', '≤ 100 nM'),
  ('Cc1cc(CCN2CCCCC2)cc2c(=O)[nH]c(-c3cnc4sccc4c3)nc12.Cl [Compound 128, hydrochloride]', 'EC50', '1000 to 10000 nM'),
  ('Cc1cc(C(=O)N2CCOCC2)cc2c(=O)[nH]c(-c3cc4cccn4cn3)nc12', 'EC50', '100 to 1000 nM'),
  ('COCCOc1ccc2nc(-c3cc4sccc4cn3)[nH]c(=O)c2c1', 'EC50', '> 10000 nM'),
  ('O=c1[nH]c(-c2cc(C3CC3)ccn2)nc2ccc(OCCCc3ccncc3)cc12', 'EC50', '100 to 1000 nM'),
  ('O=c1[nH]c(-c2cccc(C(F)(F)F)n2)nc2ccc(OCCCc3ccncc3)cc12 [Compound 17, hydrochloride]', 'EC50', '≤ 100 nM'),
  ('Cc1cc(CCCOc2ccc3nc(-c4cc5ccsc5cn4)[nH]c(=O)c3c2)ccn1 [Compound 63, hydrochloride]', 'EC50', '100 to 1000 nM'),
  ('O=c1[nH]c(-c2cc(C(F)(F)F)ccn2)nc2ncc(OCCCc3ccncc3)cc12 [Compound 68, hydrochloride]', 'EC50', '> 10000 nM'),
  ('Cc1cc(OCCC2COC2)cc2c(=O)[nH]c(-c3cc4ccsc4cn3)nc12', 'EC50', '100 to 1000 nM'),
  ('Cc1cc(OCCC2CCOC2)cc2c(=O)[nH]c(-c3cc4ccsc4cn3)nc12 (stereo not drawn)', 'EC50', '≤ 100 nM'),
  ('Cc1cc(OCC2CCOC2)cc2c(=O)[nH]c(-c3cc4cccn4cn3)nc12 (stereo not drawn)', 'EC50', '≤ 100 nM'),
  ('O=c1[nH]c(-c2cc3ccsc3cn2)nc2ccc(OCCCc3ccncc3)c(Cl)c12 [Compound 71, hydrochloride]', 'EC50', '> 10000 nM'),
  ('Cc1cc(OCC2CCN(C3COC3)CC2)cc2c(=O)[nH]c(-c3cc4ccsc4cn3)nc12', 'EC50', '≤ 100 nM'),
  ('O=c1[nH]c(-c2cc3ccsc3cn2)nc2c(Cl)cc(OCCCc3ccncc3)cc12 [Compound 72, hydrochloride]', 'EC50', '100 to 1000 nM'),
  ('Cc1cc(O[C@H]2CCN(C(=O)OCc3ccccc3)C2)cc2c(=O)[nH]c(-c3cc4sccc4cn3)nc12', 'EC50', '100 to 1000 nM'),
  ('COCC1CCN(Cc2cc(C)c3nc(-c4cc5sccc5cn4)[nH]c(=O)c3c2)CC1 [Compound 157, hydrochloride]', 'EC50', '100 to 1000 nM'),
  ('Cc1cc(CCCN2CCOCC2)cc2c(=O)[nH]c(-c3cc4ccsc4cn3)nc12 [Compound 99, hydrochloride]', 'EC50', '100 to 1000 nM'),
  ('COc1ccnc(-c2nc3ccc(OCCCc4ccncc4)cc3c(=O)[nH]2)c1.Cl [Compound 7, hydrochloride]', 'EC50', '1000 to 10000 nM'),
  ('O=c1[nH]c(-c2cc3cccn3cn2)nc2ccc(OCCCc3ccncc3)cc12', 'EC50', '100 to 1000 nM'),
  ('Cc1cc(CN2CCCCC2)cc2c(=O)[nH]c(-c3cc4ccsc4cn3)nc12.Cl [Compound 131, hydrochloride]', 'EC50', '100 to 1000 nM'),
  ('Cc1cc(CCN2C3CCC2COC3)cc2c(=O)[nH]c(-c3cc(C(F)(F)F)ccn3)nc12.Cl [Compound 163, hydrochloride]', 'EC50', '≤ 100 nM'),
  ('Cl.O=c1[nH]c(-c2cc3ccsc3cn2)nc2ccc(OCCCc3cnccn3)cc12 [Compound 61, hydrochloride]', 'EC50', '100 to 1000 nM'),
  ('Cc1cc(CCN2CCC(O)CC2)cc2c(=O)[nH]c(-c3cc(C(F)(F)F)ccn3)nc12.Cl [Compound 164, hydrochloride]', 'EC50', '100 to 1000 nM'),
  ('Cc1cc(CCN2CCCOCC2)cc2c(=O)[nH]c(-c3cnc4ccsc4c3)nc12.Cl [Compound 122, hydrochloride]', 'EC50', '≤ 100 nM');
